# Organism: Rattus norvegicus
# experiment-summary: Open TG-GATES - Regimen: Daily Repeat
# Format: toxicity, organism-based, Sprague-Dawley
# Set-up: regimen Daily Repeat, gender Male, age 6 weeks
# study-conditions: in vivo, po, 300 mg/kg, […], tissue Blood, route gavage, dose level Middle, time 7 day
Let's look at some compounds and their measured Hb.
Respond numerically; units are g/dL and should not be typed.

Some compounds with known Hb results, for comparison:
[[record]]
compound = "CCN1CCCC1CNC(=O)c1cc(S(N)(=O)=O)ccc1OC (centres undefined) [SULPIRIDE]"
observed = 13.8

[[record]]
compound = "CC(C)(S)[C@@H](N)C(=O)O"
observed = 13.4

[[record]]
compound = "O=C(O)c1cccnc1"
observed = 13.8


**Q:** What value of Hb has been recorded for this entry: `O=C(N[C@H](CO)[C@H](O)c1ccc([N+](=O)[O-])cc1)C(Cl)Cl`
**A:** 13.7
